// provenance: patent US20080293712A1

So I've got pIC50 readings for S6K (Homo sapiens), take a look.
Remember, pIC50 is on a log scale: it is -log10 of the molar concentration.

Sample records with pIC50:
COc1cc2ncc3c(N)nc(-c4cncc(OC[C@@H](N)Cc5ccc(O)cc5)c4)cc3c2cc1OC [Ib-53]; 7.07
COCCOc1cc2ncc3c(N)nc(-c4cccnc4)cc3c2cc1OC [Ia-2]; 6.27

Here is the next item to consider.
// assay S6K (Homo sapiens), entry Nc1nc(-c2cncc(OC[C@@H](N)Cc3ccccc3)c2)cc2c1cnc1cc(/C=C/CCN3CCCC3)ccc12 [Ia-4] , pIC50 value = 7.05
